Values were extracted from ChEMBL document CHEMBL4368896.

target: Tyrosinase (Agaricus bisporus, UniProt O42713); assay: Inhibition of mushroom tyrosinase diphenolase activity using L-dopa as substrate after 10 mins by spectrophotometric analysis
value-kind: IC50 (µM)
Numeric only. Scale: µM

structure-notation	IC50 [µM]
NC(=S)N/N=C/c1ccc(O)cc1	3.8

Data request: Which measured IC50 value corresponds to COc1ccc(/C=N/NC(N)=S)cc1 ?
Data returned: 2.62

* * *

Catalogue of IC50 values
target: Tyrosinase (Agaricus bisporus, UniProt O42713); test: Inhibition of mushroom tyrosinase using L-dopa as substrate measured for 150 secs by spectrophotometric analysis
Could you write the number and then its unit?

structure-notation	IC50
NC(=S)N/N=C/c1cc(COC(=O)C2CCCCC2)cs1	136 nM
CCOCc1csc(/C=N/NC(N)=S)c1	490 nM
CCC(=O)OCc1csc(/C=N/NC(N)=S)c1	161 nM
CC(=O)OCc1csc(/C=N/NC(N)=S)c1	340 nM
CCCC(=O)OCc1csc(/C=N/NC(N)=S)c1	105 nM

Data request: Which measured IC50 value corresponds to NC(=S)N/N=C/c1cc(COC=O)cs1 ?
Data returned: 196 nM

Data request: Which measured IC50 value corresponds to NC(=S)N/N=C/c1cc(CO)cs1 ?
Data returned: 670 nM

Data request: Which measured IC50 value corresponds to CCCCC(=O)OCc1csc(/C=N/NC(N)=S)c1 ?
Data returned: 110 nM

Data request: Which measured IC50 value corresponds to NC(=S)N/N=C/c1cc(COC(=O)C2CCCC2)cs1 ?
Data returned: 140 nM

Data request: Which measured IC50 value corresponds to NC(=S)N/N=C/c1cc(COCCO)cs1 ?
Data returned: 1420 nM

Data request: Which measured IC50 value corresponds to COCc1csc(/C=N/NC(N)=S)c1 ?
Data returned: 740 nM

Data request: Which measured IC50 value corresponds to NC(=S)N/N=C/c1cc(COC(=O)c2ccccc2)cs1 ?
Data returned: 68 nM

Data request: Which measured IC50 value corresponds to NC(=S)N/N=C/c1ccc(-c2ccccc2)s1 ?
Data returned: 670 nM

* * *

Target: Tyrosinase (Agaricus bisporus)
Sequence (O42713 whole entry): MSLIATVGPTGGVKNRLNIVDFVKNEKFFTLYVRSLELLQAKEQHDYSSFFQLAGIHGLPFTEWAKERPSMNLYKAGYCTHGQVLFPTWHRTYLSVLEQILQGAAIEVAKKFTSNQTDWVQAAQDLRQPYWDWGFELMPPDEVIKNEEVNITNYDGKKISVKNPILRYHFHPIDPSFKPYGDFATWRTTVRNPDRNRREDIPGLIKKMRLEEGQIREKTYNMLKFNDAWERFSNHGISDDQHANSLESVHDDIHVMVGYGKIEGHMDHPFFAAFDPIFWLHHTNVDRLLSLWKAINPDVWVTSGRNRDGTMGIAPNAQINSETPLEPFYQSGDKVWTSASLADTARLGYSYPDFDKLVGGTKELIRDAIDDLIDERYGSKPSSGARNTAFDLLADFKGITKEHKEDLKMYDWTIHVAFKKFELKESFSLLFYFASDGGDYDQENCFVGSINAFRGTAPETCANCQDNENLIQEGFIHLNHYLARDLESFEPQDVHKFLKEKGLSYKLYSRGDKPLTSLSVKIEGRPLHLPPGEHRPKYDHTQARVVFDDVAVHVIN
Experiment: Inhibition of mushroom tyrosinase using L-dopa as substrate preincubated for 10 mins followed by substrate addition and measured for 1 min
Label 1 (yes) when IC50 is strictly below 800 nM; otherwise label 0 (no).

Sample answers from the record:
structure-notation	cat
COCCOc1ccc(/C=N/NC(N)=S)cc1	1 (yes)
CC(C)Oc1ccc(/C=N/NC(N)=S)cc1	0 (no)
NC(=S)N/N=C/c1ccc(OCOCCO)cc1	1 (yes)
NC(=S)N/N=C/c1ccccc1O	1 (yes)
NC(=S)N/N=C/c1ccc(O)c(O)c1	0 (no)

Turning to the following compound.
Data request: Decide: IC50 of NC(=S)N/N=C/c1cc(O)cc(O)c1 strictly below 800 nM?
Data returned: 0 (no)

* * *

target: Tyrosinase (Agaricus bisporus, UniProt O42713); experiment: Reversible competitive inhibition of mushroom tyrosinase after 10 mins by Lineweaver-Burk plot analysis
value-kind: Ki (nM)
Numeric only. Scale: nM

Data request: Which measured Ki value corresponds to C/C(=N\N=C(/N)S)c1ccccc1 ?
Data returned: 380

* * *

Target: Tyrosinase (Agaricus bisporus, UniProt O42713)
Sequence (O42713 whole entry): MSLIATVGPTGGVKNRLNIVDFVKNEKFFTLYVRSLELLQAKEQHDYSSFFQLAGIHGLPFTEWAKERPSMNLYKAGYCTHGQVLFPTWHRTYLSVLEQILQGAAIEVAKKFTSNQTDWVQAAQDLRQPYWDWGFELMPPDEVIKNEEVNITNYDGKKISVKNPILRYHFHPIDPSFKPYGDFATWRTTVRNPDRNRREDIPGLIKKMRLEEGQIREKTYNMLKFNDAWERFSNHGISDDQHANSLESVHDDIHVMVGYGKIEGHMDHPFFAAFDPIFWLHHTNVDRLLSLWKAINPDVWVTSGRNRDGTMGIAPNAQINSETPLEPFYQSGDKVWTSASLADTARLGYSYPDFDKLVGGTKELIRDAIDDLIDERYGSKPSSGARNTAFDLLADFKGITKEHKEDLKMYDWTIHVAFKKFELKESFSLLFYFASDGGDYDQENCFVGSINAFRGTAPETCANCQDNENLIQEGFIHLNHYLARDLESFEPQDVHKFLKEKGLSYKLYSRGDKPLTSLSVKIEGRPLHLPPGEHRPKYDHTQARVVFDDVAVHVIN
Test: Inhibition of mushroom tyrosinase using L-dopa as substrate preincubated for 10 mins followed by substrate addition and measured for 1 min
Label criterion met when IC50 is strictly below 1000 nM; otherwise label criterion not met.

structure-notation	system	cat
N=C(S)N/N=C/c1ccc(Oc2ccc(F)cc2)cc1	Tyrosinase (Agaricus bisporus, UniProt O42713)	criterion not met

Data request: Decide: IC50 of CCCCCOc1ccc(/C=N/NC(N)=S)cc1 strictly below 1000 nM?
Data returned: criterion not met

Data request: Decide: IC50 of COc1ccc(/C=N/NC(N)=S)cc1 strictly below 1000 nM?
Data returned: criterion not met

Data request: Decide: IC50 of CCCOc1ccc(/C=N/NC(N)=S)cc1 strictly below 1000 nM?
Data returned: criterion not met

Data request: Decide: IC50 of COCCOCCOc1ccc(/C=N/NC(N)=S)cc1 strictly below 1000 nM?
Data returned: criterion met

Data request: Decide: IC50 of NC(=S)N/N=C/c1ccc(O)cc1 strictly below 1000 nM?
Data returned: criterion met

* * *

Target: Tyrosinase (Agaricus bisporus)
Sequence (O42713 whole entry): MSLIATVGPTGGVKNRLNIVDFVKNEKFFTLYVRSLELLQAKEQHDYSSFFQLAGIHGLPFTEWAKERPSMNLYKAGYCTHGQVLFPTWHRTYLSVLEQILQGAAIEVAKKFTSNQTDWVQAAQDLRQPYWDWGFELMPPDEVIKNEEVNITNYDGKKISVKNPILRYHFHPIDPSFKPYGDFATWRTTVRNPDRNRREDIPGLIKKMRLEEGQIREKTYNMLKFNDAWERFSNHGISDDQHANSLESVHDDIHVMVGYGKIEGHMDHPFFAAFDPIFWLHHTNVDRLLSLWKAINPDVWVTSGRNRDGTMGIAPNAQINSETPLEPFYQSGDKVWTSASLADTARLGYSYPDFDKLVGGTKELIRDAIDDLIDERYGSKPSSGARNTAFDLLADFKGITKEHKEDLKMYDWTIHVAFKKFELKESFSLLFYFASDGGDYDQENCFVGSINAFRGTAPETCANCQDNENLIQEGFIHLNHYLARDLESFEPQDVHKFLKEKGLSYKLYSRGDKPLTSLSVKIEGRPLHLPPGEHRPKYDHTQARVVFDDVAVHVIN
Assay: Reversible competitive inhibition of mushroom tyrosinase using L-dopa as substrate preincubated for 2 mins followed by substrate addition and measured for 5 mins by Lineweaver-Burk plot analysis
value-kind: pKi
Worth noting: pKi values are minus log10 of concentrations stated in mol/L.

Data request: Which measured pKi value corresponds to CNC(=S)N/N=C(\C)c1ccc(O)cc1O ?
Data returned: 5.30

* * *

Molecular target: Tyrosinase (Agaricus bisporus)
Sequence (O42713 whole entry): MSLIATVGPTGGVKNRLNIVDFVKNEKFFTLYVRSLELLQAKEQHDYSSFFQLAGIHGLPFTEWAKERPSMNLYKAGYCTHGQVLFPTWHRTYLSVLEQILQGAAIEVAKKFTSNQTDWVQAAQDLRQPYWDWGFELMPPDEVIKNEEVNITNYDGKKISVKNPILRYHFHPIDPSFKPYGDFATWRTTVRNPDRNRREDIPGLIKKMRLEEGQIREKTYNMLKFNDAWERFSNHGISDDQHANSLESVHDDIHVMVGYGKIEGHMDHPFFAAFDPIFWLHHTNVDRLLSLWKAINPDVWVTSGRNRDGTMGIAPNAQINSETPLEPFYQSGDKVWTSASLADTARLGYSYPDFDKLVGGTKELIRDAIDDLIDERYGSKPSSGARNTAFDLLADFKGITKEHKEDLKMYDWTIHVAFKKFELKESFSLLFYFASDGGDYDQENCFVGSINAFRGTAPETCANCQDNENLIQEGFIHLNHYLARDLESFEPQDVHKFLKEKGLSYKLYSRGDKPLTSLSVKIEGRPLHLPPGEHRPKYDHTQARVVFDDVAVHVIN
Experiment: Inhibition of mushroom tyrosinase using L-dopa as substrate preincubated for 2 mins followed by substrate addition and measured for 5 mins by spectrophotometric analysis
value-kind: IC50 (µM)
Numeric only. Scale: µM

Past entries and their recorded results:
structure-notation	IC50 / µM
CNC(=S)N/N=C(\C)c1ccccc1	213
CNC(=S)N/N=C(\C)c1ccc(OC)cc1O	18
CNC(=S)N/N=C(\C)c1ccc(OC)cc1	65
CNC(=S)N/N=C(\C)c1ccccc1O	108

Data request: Which measured IC50 value corresponds to CNC(=S)N/N=C(\C)c1ccc(O)cc1O ?
Data returned: 6
